# Tested on: U251 CNS
# ASSAY_PROTOCOL: NCI tumour cell line growth inhibition, 48 h
Where a SMILES comes first, the peptide text is derived from it. [ ]: non-standard residue; d: D form. The star is where a group is joined. ξ: configuration not given here. ξD = NC(CC(=O)O)C(=O)O; Ac3c = NC1(C(=O)O)CC1; Boc = CC(C)(C)OC(=O)*; OtBu = CC(C)(C)O*
MEASURED_PARAMETER: TGI

Guide cases for TGI, answers given:
COMPOUND	MEASURED_PARAMETER	REPORTED_VALUE
CC(=O)CC(C)(C)NC(=O)[C@@]1(O)CC[C@H]2[C@@H]3CCC4=CC(=O)CC[C@@H]4[C@H]3CC[C@@]21C	TGI	> 100 µM
NS(=O)(=O)c1cccc(-c2ccc3c(NC(=O)C4CC4)n[nH]c3c2)c1	TGI	> 25 µM
N#CC1(c2ccccc2)CCN(C2(c3ccccc3)CCCCC2)CC1	TGI	> 100 µM

Hi there! I need TGI for each item below, if you can.
1. CCN1C(=O)N(CC)C2C1NN=c1s/c(=C\c3ccc[nH]3)c(=O)n12 (stereo unspecified)
2. COC(=O)C1(NC(=O)C(CC(=O)OC(C)(C)C)NC(=O)OC(C)(C)C)CC1 (stereo unspecified) (Boc-[ξD](OtBu)-[Ac3c]-OMe)

**A:**
> 100 µM
> 100 µM

Lab book: TGI of CCOC1OC(=O)[C@H]2[C@@H]1[C@@H]1CC[C@H]2O1 (stereo partly specified) noted as > 100 µM
